- Experimental System: EZH2 (Homo sapiens)
- Construct: the EZH2 enzyme was replaced with tumor protein extracts in each group; from tissue; host or cells: human tumour xenografts excised from treated nude mice
- Sequence (Q15910 whole entry): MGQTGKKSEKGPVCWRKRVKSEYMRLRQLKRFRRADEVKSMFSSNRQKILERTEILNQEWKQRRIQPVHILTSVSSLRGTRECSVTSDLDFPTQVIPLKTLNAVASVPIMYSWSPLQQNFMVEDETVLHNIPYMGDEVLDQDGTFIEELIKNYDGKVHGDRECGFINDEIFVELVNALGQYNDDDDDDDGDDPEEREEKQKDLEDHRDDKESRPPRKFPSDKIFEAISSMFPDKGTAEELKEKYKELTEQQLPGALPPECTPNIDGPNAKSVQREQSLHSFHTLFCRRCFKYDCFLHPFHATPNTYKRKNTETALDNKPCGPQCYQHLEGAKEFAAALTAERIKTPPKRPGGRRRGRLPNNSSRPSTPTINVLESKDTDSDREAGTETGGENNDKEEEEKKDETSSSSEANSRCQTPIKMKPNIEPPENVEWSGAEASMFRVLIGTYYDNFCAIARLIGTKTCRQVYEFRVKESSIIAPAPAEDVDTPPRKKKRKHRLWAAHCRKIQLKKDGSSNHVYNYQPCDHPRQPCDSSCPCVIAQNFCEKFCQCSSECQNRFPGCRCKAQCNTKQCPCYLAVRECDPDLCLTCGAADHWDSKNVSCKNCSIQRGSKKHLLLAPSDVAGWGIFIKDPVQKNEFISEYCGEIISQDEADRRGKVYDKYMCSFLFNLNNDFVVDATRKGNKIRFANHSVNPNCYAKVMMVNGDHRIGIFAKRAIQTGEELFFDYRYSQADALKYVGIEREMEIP
- Sequence (O75530 whole entry partner): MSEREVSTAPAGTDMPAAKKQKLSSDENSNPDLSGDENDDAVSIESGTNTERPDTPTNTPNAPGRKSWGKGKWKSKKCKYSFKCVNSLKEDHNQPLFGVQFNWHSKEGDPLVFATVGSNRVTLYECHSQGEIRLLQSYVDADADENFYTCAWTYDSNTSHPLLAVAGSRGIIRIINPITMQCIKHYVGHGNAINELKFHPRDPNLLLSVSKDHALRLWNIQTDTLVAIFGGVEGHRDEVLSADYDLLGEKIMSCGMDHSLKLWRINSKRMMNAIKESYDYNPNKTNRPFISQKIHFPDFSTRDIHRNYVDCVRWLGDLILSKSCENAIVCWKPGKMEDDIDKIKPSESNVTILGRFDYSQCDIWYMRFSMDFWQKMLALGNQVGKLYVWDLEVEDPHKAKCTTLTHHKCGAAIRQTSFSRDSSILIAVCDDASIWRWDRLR
- Sequence (Q15022 whole entry partner): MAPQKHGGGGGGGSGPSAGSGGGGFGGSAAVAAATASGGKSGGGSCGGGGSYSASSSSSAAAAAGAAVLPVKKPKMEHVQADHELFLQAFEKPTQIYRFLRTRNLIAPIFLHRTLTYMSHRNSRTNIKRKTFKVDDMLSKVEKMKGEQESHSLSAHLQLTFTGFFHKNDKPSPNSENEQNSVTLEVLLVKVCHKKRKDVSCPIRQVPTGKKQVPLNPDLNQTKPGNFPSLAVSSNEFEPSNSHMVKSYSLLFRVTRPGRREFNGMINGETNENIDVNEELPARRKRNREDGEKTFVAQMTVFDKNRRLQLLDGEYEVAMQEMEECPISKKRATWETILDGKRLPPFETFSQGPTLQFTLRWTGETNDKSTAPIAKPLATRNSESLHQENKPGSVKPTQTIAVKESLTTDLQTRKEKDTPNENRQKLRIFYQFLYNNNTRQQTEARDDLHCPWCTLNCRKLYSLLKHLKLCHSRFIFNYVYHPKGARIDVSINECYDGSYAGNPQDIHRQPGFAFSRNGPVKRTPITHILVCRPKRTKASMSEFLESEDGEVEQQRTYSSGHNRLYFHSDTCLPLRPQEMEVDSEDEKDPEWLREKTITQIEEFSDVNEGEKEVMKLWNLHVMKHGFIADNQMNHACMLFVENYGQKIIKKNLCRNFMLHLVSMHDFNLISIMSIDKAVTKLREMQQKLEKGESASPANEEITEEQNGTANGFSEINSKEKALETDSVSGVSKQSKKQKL
- Method Notes: EZH2 enzyme activity in protein extracts of human tumor xenografts of treated mice (EZH2 Assay Kit)
- Assay type: in vivo
- Condition: A549 tumor grown in vivo; tumors excised 6 h after medication; SAHA 25 mg/kg
Reported Property: decrease of EZH2 enzyme activity/inhibition rate

Provide decrease of EZH2 enzyme activity/inhibition rate value for the following molecule: `CCNC(=O)CC[C@@H](NC(=O)c1cc2cc(Cl)cc(Cl)c2oc1=O)C(=O)OCC`
57%*(A549)-

Provide decrease of EZH2 enzyme activity/inhibition rate value for the following molecule: CCNC(=O)CCC(NC(=O)c1cc2ccccc2oc1=O)C(=O)OCC (centres unmarked)
54%*(A549)-

Provide decrease of EZH2 enzyme activity/inhibition rate value for the following molecule: `CCNC(=O)CC[C@@H](NC(=O)c1cc2cc(Br)cc(Br)c2oc1=O)C(=O)OCC`
55%*(A549)-

Provide decrease of EZH2 enzyme activity/inhibition rate value for the following molecule: CCNC(=O)CCC(NC(=O)c1cc2cc([N+](=O)[O-])ccc2oc1=O)C(=O)OCC (stereo in doubt)
65%*(A549)-

Provide decrease of EZH2 enzyme activity/inhibition rate value for the following molecule: `CCNC(=O)CC[C@@H](NC(=O)c1cc2cc(Cl)ccc2oc1=O)C(=O)OCC`
61%*(A549)-

Provide decrease of EZH2 enzyme activity/inhibition rate value for the following molecule: O=C(CCCCCCC(=O)Nc1ccccc1)NO [SAHA, suberoylanilide hydroxamic acid, reference compound]
53%*(A549)-

Provide decrease of EZH2 enzyme activity/inhibition rate value for the following molecule: CCNC(=O)CCC(NC(=O)c1cc2cc(F)ccc2oc1=O)C(=O)OCC (stereo in doubt)
58%*(A549)-

Provide decrease of EZH2 enzyme activity/inhibition rate value for the following molecule: `CCNC(=O)CC[C@@H](NC(=O)c1cc2cc(Br)ccc2oc1=O)C(=O)OCC`
61%*(A549)-

---

Can you tell me pIC50 for the items I'm about to list?
- Tested on: Akt
- Method Notes: Western Blotting, Akt level
- Format: cell-based
- Condition: human liver cancer cells, Lewis lung cancer cells and other cancer cell lines and tumor tissues, read-out: Effective concentration (IC50) for inhibition of Akt
pIC50: −log10 of the molar value.

Provide pIC50 value for the following molecule: CCNC(=O)CCC(NC(=O)c1cc2cc(F)ccc2oc1=O)C(=O)OCC (stereo in doubt) [Compound Ie]
> 3.80

Provide pIC50 value for the following molecule: CCNC(=O)CC[C@@H](NC(=O)c1cc2cc(Cl)ccc2oc1=O)C(=O)OCC [Compound Ic]
> 4.00

Provide pIC50 value for the following molecule: CCNC(=O)CC[C@@H](NC(=O)c1cc2cc(Br)cc(Br)c2oc1=O)C(=O)OCC [Compound Ih]
> 4.15

Provide pIC50 value for the following molecule: CCNC(=O)CC[C@@H](NC(=O)c1cc2cc(Cl)cc(Cl)c2oc1=O)C(=O)OCC [Compound Ig]
> 4.15

Provide pIC50 value for the following molecule: CCNC(=O)CCC(NC(=O)c1cc2cc([N+](=O)[O-])ccc2oc1=O)C(=O)OCC (stereo in doubt) [Compound If]
> 4.05

Provide pIC50 value for the following molecule: CCNC(=O)CCC(NC(=O)c1cc2ccccc2oc1=O)C(=O)OC (centres unmarked) [Compound Ia]
> 3.90

Provide pIC50 value for the following molecule: CCNC(=O)CCC(NC(=O)c1cc2ccccc2oc1=O)C(=O)OCC (centres unmarked) [Compound Ib]
> 3.92

Provide pIC50 value for the following molecule: CCNC(=O)CC[C@@H](NC(=O)c1cc2cc(Br)ccc2oc1=O)C(=O)OCC [Compound Id]
> 4.00

---

- Test system: human oral epidermoid cancer cells KBV200
- Method Notes: MTT growth inhibition, KBV200 cells
- Type: cell-based
- Condition: 72 h after treatment, read-out: Drug concentration (IC50) at which 50% cancer cells survived
Note to self: class = bucket of IC50, per low band: < 100 µM; middle band: ≥ 100 µM and < 300 µM; high band: ≥ 300 µM

Where would `CCNC(=O)CC[C@@H](NC(=O)c1cc2cc(Cl)cc(Cl)c2oc1=O)C(=O)OCC` land among the classes by reported IC50?
low band

Where would `CCNC(=O)CC[C@@H](NC(=O)c1cc2cc(Br)cc(Br)c2oc1=O)C(=O)OCC` land among the classes by reported IC50?
low band

Where would CCNC(=O)CCC(NC(=O)c1cc2ccccc2oc1=O)C(=O)OC (centres unmarked) land among the classes by reported IC50?
middle band

Where would COc1cccc2c1C(=O)c1c(O)c3c(c(O)c1C2=O)C[C@@](O)(C(C)=O)C[C@@H]3O[C@H]1C[C@H](N)[C@H](O)[C@H](C)O1 [Daunorubicin, reference compound] land among the classes by reported IC50?
low band

Where would CCNC(=O)CCC(NC(=O)c1cc2cc(F)ccc2oc1=O)C(=O)OCC (stereo in doubt) land among the classes by reported IC50?
middle band

Where would CCNC(=O)CCC(NC(=O)c1cc2ccccc2oc1=O)C(=O)OCC (centres unmarked) land among the classes by reported IC50?
middle band

Where would `O=C(O)c1cc2ccccc2oc1=O` land among the classes by reported IC50?
high band

Where would `CCNC(=O)CC[C@H](N)C(=O)OC` land among the classes by reported IC50?
high band

Where would `CCNC(=O)CC[C@@H](NC(=O)c1cc2cc(Br)ccc2oc1=O)C(=O)OCC` land among the classes by reported IC50?
middle band

Where would `O=C(O)c1cc2cc(Cl)ccc2oc1=O` land among the classes by reported IC50?
high band

---

- Experimental System: EZH2 (Homo sapiens)
- Construct: the EZH2 enzyme was replaced with tumor protein extracts in each group; from tissue; host or cells: human tumour xenografts excised from treated nude mice
- Method Notes: EZH2 enzyme activity in protein extracts of human tumor xenografts of treated mice (EZH2 Assay Kit)
- Type: in vivo
- Condition: MCF7 tumor grown in vivo; tumors excised 6 h after medication; SAHA 25 mg/kg
Reported Property: decrease of EZH2 enzyme activity/inhibition rate

Provide decrease of EZH2 enzyme activity/inhibition rate value for the following compound: `CCNC(=O)CC[C@@H](NC(=O)c1cc2cc(Br)cc(Br)c2oc1=O)C(=O)OCC`
61%*(MCF7)

Provide decrease of EZH2 enzyme activity/inhibition rate value for the following compound: CCNC(=O)CCC(NC(=O)c1cc2cc([N+](=O)[O-])ccc2oc1=O)C(=O)OCC (stereo in doubt)
66%*(MCF7)

Provide decrease of EZH2 enzyme activity/inhibition rate value for the following compound: `CCNC(=O)CC[C@@H](NC(=O)c1cc2cc(Cl)ccc2oc1=O)C(=O)OCC`
56%*(MCF7)

Provide decrease of EZH2 enzyme activity/inhibition rate value for the following compound: O=C(CCCCCCC(=O)Nc1ccccc1)NO [SAHA, suberoylanilide hydroxamic acid, reference compound]
53%*(MCF7)

Provide decrease of EZH2 enzyme activity/inhibition rate value for the following compound: `CCNC(=O)CC[C@@H](NC(=O)c1cc2cc(Cl)cc(Cl)c2oc1=O)C(=O)OCC`
65%*(MCF7)

Provide decrease of EZH2 enzyme activity/inhibition rate value for the following compound: CCNC(=O)CCC(NC(=O)c1cc2cc(F)ccc2oc1=O)C(=O)OCC (stereo in doubt)
62%*(MCF7)

Provide decrease of EZH2 enzyme activity/inhibition rate value for the following compound: `CCNC(=O)CC[C@@H](NC(=O)c1cc2cc(Br)ccc2oc1=O)C(=O)OCC`
56%*(MCF7)

---

Can you tell me Emission (fluorescent wavelength range detectable in vivo and in vitro) for the items I'm about to list?
- Method Notes: Fluorescent imaging in vivo and in vitro
- Format: physicochemical
- Condition: 60 mg/kg body weight/0.2 ml

Provide Emission (fluorescent wavelength range detectable in vivo and in vitro) value for the following compound: CCNC(=O)CC[C@@H](NC(=O)c1cc2cc(Cl)cc(Cl)c2oc1=O)C(=O)OCC [Compound Ig]
430-690 nm

Provide Emission (fluorescent wavelength range detectable in vivo and in vitro) value for the following compound: CCNC(=O)CCC(NC(=O)c1cc2ccccc2oc1=O)C(=O)OC (centres unmarked) [Compound Ia]
430-650 nm

Provide Emission (fluorescent wavelength range detectable in vivo and in vitro) value for the following compound: CCNC(=O)CCC(NC(=O)c1cc2ccccc2oc1=O)C(=O)OCC (centres unmarked) [Compound Ib]
430-650 nm

Provide Emission (fluorescent wavelength range detectable in vivo and in vitro) value for the following compound: CCNC(=O)CC[C@@H](NC(=O)c1cc2cc(Br)cc(Br)c2oc1=O)C(=O)OCC [Compound Ih]
430-690 nm

Provide Emission (fluorescent wavelength range detectable in vivo and in vitro) value for the following compound: CCNC(=O)CCC(NC(=O)c1cc2cc(F)ccc2oc1=O)C(=O)OCC (stereo in doubt) [Compound Ie]
430-650 nm

Provide Emission (fluorescent wavelength range detectable in vivo and in vitro) value for the following compound: CCNC(=O)CCC(NC(=O)c1cc2cc([N+](=O)[O-])ccc2oc1=O)C(=O)OCC (stereo in doubt) [Compound If]
430-650 nm

Provide Emission (fluorescent wavelength range detectable in vivo and in vitro) value for the following compound: CCNC(=O)CC[C@@H](NC(=O)c1cc2cc(Br)ccc2oc1=O)C(=O)OCC [Compound Id]
430-670 nm

Provide Emission (fluorescent wavelength range detectable in vivo and in vitro) value for the following compound: CCNC(=O)CC[C@@H](NC(=O)c1cc2cc(Cl)ccc2oc1=O)C(=O)OCC [Compound Ic]
430-670 nm
